# SYSTEM_UNDER_TEST: EPHA7 (human) (UniProt Q15375)
# Sequence (Q15375 whole entry, looked up): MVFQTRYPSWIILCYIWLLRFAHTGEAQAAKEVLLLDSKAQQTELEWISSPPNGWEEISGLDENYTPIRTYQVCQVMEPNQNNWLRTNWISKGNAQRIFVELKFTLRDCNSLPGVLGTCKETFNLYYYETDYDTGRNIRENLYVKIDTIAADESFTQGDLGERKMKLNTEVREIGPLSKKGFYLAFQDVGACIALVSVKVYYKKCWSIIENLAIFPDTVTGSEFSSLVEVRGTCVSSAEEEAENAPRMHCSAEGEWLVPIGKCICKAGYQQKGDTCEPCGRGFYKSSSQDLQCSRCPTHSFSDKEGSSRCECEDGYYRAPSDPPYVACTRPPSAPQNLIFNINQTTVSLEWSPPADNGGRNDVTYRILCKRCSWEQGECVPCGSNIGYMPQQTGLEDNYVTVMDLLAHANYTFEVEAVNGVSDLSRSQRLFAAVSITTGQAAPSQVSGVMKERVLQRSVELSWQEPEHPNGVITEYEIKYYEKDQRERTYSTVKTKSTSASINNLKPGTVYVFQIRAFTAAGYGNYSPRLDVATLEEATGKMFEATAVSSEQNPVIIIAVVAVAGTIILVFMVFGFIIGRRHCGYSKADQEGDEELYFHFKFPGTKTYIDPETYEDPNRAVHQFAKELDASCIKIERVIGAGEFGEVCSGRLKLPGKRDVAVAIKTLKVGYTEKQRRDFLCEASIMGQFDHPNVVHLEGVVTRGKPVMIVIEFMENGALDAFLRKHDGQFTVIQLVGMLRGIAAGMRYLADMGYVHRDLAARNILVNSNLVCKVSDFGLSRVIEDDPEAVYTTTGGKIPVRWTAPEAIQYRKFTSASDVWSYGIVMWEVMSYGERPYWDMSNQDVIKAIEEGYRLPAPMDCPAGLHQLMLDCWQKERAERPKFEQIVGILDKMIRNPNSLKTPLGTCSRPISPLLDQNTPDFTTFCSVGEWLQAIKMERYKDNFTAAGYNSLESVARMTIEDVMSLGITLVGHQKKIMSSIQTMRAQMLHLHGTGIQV
# TEST_METHOD_NOTES: radiometric filter-binding kinase assay, Kinase HotSpot
# MEASUREMENT_PARAMETERS: compound 0.5 µM; ATP 10 µM
MEASURED_ATTRIBUTE: residual activity (%)
The answer is to be given in %; state only the numeric part.

stdin: Please give the documented residual activity of Cc1ccc(S(=O)(=O)/C=C/C#N)cc1
stdout: 99.8

stdin: Please give the documented residual activity of O=C1NC(=O)/C(=C/c2ccc3c(c2)OC(F)(F)O3)S1
stdout: 98.7

stdin: Please give the documented residual activity of COc1cc2ncnc(Nc3cccc(Cl)c3)c2cc1OC
stdout: 65

stdin: Please give the documented residual activity of CC(C)N(CCC(=O)c1ccc2ccccc2c1)Cc1ccccc1
stdout: 106

stdin: Please give the documented residual activity of CCOC(=O)c1c(C)[nH]c(/C=C2\C(=O)Nc3ccccc32)c1C
stdout: 85.3

stdin: Please give the documented residual activity of CNc1cc2c(Nc3cccc(Br)c3)ncnc2cn1
stdout: 94.6

stdin: Please give the documented residual activity of O=C1NC(=O)c2c1c1c3ccccc3n3c1c1c2c2ccccc2n1C1CCC3O1
stdout: 69.2

stdin: Please give the documented residual activity of CNC(=O)c1cc(Oc2ccc(NC(=O)Nc3ccc(Cl)c(C(F)(F)F)c3)cc2)ccn1
stdout: 80.7

stdin: Please give the documented residual activity of CCN(CC)CCNC(=O)c1c(C)[nH]c(/C=C2\C(=O)Nc3ccc(F)cc32)c1C
stdout: 50.8

stdin: Please give the documented residual activity of O=C1NC(=O)C(c2cn(CCCn3ccnc3)c3ccccc23)=C1Nc1ccccc1
stdout: 89.5

stdin: Please give the documented residual activity of N#C/C(=C(/N)Sc1ccc(N)cc1)c1ccccc1C(F)(F)F
stdout: 105

stdin: Please give the documented residual activity of c1ccc(-c2n[nH]cc2-c2ccnc3ccccc23)nc1
stdout: 91.4

----------
# SYSTEM_UNDER_TEST: NEK4 (human) (UniProt P51957)
# Sequence (P51957 whole entry, looked up): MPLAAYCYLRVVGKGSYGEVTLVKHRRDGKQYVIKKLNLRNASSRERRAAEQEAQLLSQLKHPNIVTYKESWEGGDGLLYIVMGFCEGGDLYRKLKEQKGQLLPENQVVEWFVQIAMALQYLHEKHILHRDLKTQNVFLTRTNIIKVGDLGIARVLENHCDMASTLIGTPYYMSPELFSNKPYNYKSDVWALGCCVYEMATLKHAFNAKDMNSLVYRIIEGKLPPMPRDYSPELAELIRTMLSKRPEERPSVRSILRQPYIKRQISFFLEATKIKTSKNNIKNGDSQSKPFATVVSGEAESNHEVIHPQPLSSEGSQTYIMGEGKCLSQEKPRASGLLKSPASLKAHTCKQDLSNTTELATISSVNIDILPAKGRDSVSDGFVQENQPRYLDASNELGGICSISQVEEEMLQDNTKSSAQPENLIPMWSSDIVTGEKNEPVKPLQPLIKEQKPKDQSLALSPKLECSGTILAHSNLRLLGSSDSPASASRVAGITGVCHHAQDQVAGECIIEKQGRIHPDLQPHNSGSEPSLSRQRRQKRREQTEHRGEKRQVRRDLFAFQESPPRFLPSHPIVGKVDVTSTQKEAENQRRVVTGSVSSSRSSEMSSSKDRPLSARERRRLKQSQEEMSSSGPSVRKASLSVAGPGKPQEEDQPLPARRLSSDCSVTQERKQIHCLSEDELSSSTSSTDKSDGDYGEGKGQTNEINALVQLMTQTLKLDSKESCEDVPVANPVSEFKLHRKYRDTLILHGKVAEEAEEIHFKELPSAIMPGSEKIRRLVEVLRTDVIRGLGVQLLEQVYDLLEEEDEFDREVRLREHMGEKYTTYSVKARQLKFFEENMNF
# TEST_METHOD_NOTES: radiometric filter-binding kinase assay, Kinase HotSpot
# MEASUREMENT_PARAMETERS: compound 0.5 µM; ATP 10 µM
MEASURED_ATTRIBUTE: residual activity (%)
The answer is to be given in %; state only the numeric part.

See these solved cases before continuing.
                         structure_notation  readout_units  data_value
0   COc1ccc(COc2ccc(Cc3cnc(N)nc3N)cc2OC)cc1              %        92.2
1  CNC(=O)c1cc(Oc2ccc(NC(=O)Nc3ccc(Cl)c(C(F)(F)F)c3)cc2)ccn1              %        99.5
2   Nc1ccc2ncnc(NCCc3ccc(Oc4ccccc4)cc3)c2c1              %        97.8
3  O=C1NC(=O)C(c2cn(CCCn3ccnc3)c3ccccc23)=C1Nc1ccccc1              %        94.9
4                 CC(=O)c1ccc(N2CCOCC2)cc1O              %         103
5       Cc1ccc(NC2=CC(=O)c3sc(C)nc3C2=O)cc1              %        95.3

stdin: For NEK4 (human) (UniProt P51957), give residual activity of the listed molecule: CCOC(=O)c1c(C)[nH]c(/C=C2\C(=O)Nc3ccccc32)c1C
stdout: 95.1
